biological target: Trifunctional purine biosynthetic protein adenosine-3 (Homo sapiens, UniProt P22102); assay: Inhibition of recombinant N-terminal 6His-tagged human GARFTase assessed as formation of 5,8-dideazafolate from 10-formyl-5,8-dideazafolic acid measured at every 15 seconds over 20 min by spectrophotometric analysis
pKi: −log10 of the molar value.
Class yes (1): pKi at least 7. Class no (0): pKi below 7.

TEST_SMILES | TARGET_ENTITY | CLASS
Nc1nc2[nH]c(CCSc3ccc(C(=O)N[C@@H](CCC(=O)O)C(=O)O)cc3)cc2c(=O)[nH]1 | Trifunctional purine biosynthetic protein adenosine-3 (Homo sapiens, UniProt P22102) | no (0)
Nc1nc2[nH]c(CCNc3ccc(C(=O)N[C@@H](CCC(=O)O)C(=O)O)cc3)cc2c(=O)[nH]1 | Trifunctional purine biosynthetic protein adenosine-3 (Homo sapiens, UniProt P22102) | yes (1)

---

Biological target: Proton-coupled folate transporter (Homo sapiens) (UniProt Q96NT5)
Sequence (whole entry): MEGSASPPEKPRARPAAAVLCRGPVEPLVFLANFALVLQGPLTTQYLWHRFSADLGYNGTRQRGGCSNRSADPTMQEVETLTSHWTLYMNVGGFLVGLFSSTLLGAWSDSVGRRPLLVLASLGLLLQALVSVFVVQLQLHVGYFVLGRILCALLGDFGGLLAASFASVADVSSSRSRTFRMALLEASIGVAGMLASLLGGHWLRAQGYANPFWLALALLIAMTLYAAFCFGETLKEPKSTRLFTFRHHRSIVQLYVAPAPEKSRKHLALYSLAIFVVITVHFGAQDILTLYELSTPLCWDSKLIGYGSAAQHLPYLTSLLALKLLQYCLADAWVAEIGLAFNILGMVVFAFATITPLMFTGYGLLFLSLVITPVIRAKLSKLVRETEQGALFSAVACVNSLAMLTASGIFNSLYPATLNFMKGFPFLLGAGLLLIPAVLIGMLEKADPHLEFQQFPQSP
Experiment: Inhibition of [3H]MTX uptake at human PCFT expressed in Chinese hamster R2/PCFT4 cells at 10 uM and pH 6.8 measured after 5 mins
Type: cell-based
Active and inactive are the calls of the source. The calls are words filed in the database; no cut-off is given here.

TEST_SMILES | inhibition
Nc1nc2[nH]c(CCNc3ccc(C(=O)N[C@@H](CCC(=O)O)C(=O)O)cc3)cc2c(=O)[nH]1 | 40 to 60%
Nc1nc2[nH]c(CCN(C(=O)C(F)(F)F)c3ccc(C(=O)N[C@@H](CCC(=O)O)C(=O)O)cc3)cc2c(=O)[nH]1 | 40 to 60%
Nc1nc2[nH]c(CCN(C=O)c3ccc(C(=O)N[C@@H](CCC(=O)O)C(=O)O)cc3)cc2c(=O)[nH]1 | Active
CC(=O)N(CCc1cc2c(=O)[nH]c(N)nc2[nH]1)c1ccc(C(=O)N[C@@H](CCC(=O)O)C(=O)O)cc1 | Active
Nc1nc2[nH]c(CCSc3ccc(C(=O)N[C@@H](CCC(=O)O)C(=O)O)cc3)cc2c(=O)[nH]1 | Active
Nc1nc2[nH]c(CCCc3ccc(C(=O)N[C@@H](CCC(=O)O)C(=O)O)cc3)cc2c(=O)[nH]1 | 40 to 60%
Nc1nc2[nH]c(CCOc3ccc(C(=O)N[C@@H](CCC(=O)O)C(=O)O)cc3)cc2c(=O)[nH]1 | 40 to 60%

---

assay: Toxicity in folate-deficient diet fed SCID mouse xenografted with human IGROV1 cells assessed as body weight loss at 96 and 150 mg/kg, iv administered […] post 2 days of tumor implantation measured during compound treatment; format: organism-based; conditions: in vivo, 48 h

TEST_SMILES | Activity
Nc1nc2[nH]c(CCNc3ccc(C(=O)N[C@@H](CCC(=O)O)C(=O)O)cc3)cc2c(=O)[nH]1 | 17 to 17.3%

---

molecular target: Proton-coupled folate transporter (Homo sapiens, UniProt Q96NT5); test: Inhibition of [3H]MTX uptake at human PCFT expressed in Chinese hamster R2/PCFT4 cells at pH 5.5 measured after 5 mins by Dixon plot analysis; assay type: cell-based
pKi: −log10 of the molar value.

TEST_SMILES | TARGET_ENTITY | pKi
CC(=O)N(CCc1cc2c(=O)[nH]c(N)nc2[nH]1)c1ccc(C(=O)N[C@@H](CCC(=O)O)C(=O)O)cc1 | Proton-coupled folate transporter (Homo sapiens, UniProt Q96NT5) | 5.77
Nc1nc2[nH]c(CCN(C(=O)C(F)(F)F)c3ccc(C(=O)N[C@@H](CCC(=O)O)C(=O)O)cc3)cc2c(=O)[nH]1 | Proton-coupled folate transporter (Homo sapiens, UniProt Q96NT5) | 6.10
Nc1nc2[nH]c(CCN(C=O)c3ccc(C(=O)N[C@@H](CCC(=O)O)C(=O)O)cc3)cc2c(=O)[nH]1 | Proton-coupled folate transporter (Homo sapiens, UniProt Q96NT5) | 6.14
Nc1nc2[nH]c(CCOc3ccc(C(=O)N[C@@H](CCC(=O)O)C(=O)O)cc3)cc2c(=O)[nH]1 | Proton-coupled folate transporter (Homo sapiens, UniProt Q96NT5) | 6.19
Nc1nc2[nH]c(CCSc3ccc(C(=O)N[C@@H](CCC(=O)O)C(=O)O)cc3)cc2c(=O)[nH]1 | Proton-coupled folate transporter (Homo sapiens, UniProt Q96NT5) | 5.83
Nc1nc2[nH]c(CCCc3ccc(C(=O)N[C@@H](CCC(=O)O)C(=O)O)cc3)cc2c(=O)[nH]1 | Proton-coupled folate transporter (Homo sapiens, UniProt Q96NT5) | 6.66
Nc1nc2[nH]c(CCNc3ccc(C(=O)N[C@@H](CCC(=O)O)C(=O)O)cc3)cc2c(=O)[nH]1 | Proton-coupled folate transporter (Homo sapiens, UniProt Q96NT5) | 6.07

---

target: Folate receptor alpha (Homo sapiens) (UniProt P15328); assay: Displacement of [3H]folic acid from human FR-alpha receptor expressed in Chinese hamster RT16 cells measured after 15 mins relative to folic acid; assay type: cell-based; design: concentration or dose not given beside the values
Sequence (P15328 25-234 limits assumed): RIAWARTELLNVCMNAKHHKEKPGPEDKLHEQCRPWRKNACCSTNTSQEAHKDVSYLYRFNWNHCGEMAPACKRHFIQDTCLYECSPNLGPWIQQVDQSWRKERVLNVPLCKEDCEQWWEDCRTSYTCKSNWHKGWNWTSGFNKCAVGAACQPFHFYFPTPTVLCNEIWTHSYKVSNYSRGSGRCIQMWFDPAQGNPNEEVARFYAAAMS
The compounds listed here are annotated with their inhibition.

TEST_SMILES | inhibition
Nc1nc2[nH]c(CCN(C(=O)C(F)(F)F)c3ccc(C(=O)N[C@@H](CCC(=O)O)C(=O)O)cc3)cc2c(=O)[nH]1 | < 15%
CC(=O)N(CCc1cc2c(=O)[nH]c(N)nc2[nH]1)c1ccc(C(=O)N[C@@H](CCC(=O)O)C(=O)O)cc1 | < 15%
Nc1nc2[nH]c(CCN(C=O)c3ccc(C(=O)N[C@@H](CCC(=O)O)C(=O)O)cc3)cc2c(=O)[nH]1 | < 15%
Nc1nc2[nH]c(CCSc3ccc(C(=O)N[C@@H](CCC(=O)O)C(=O)O)cc3)cc2c(=O)[nH]1 | 60 to 110%
Nc1nc2[nH]c(CCOc3ccc(C(=O)N[C@@H](CCC(=O)O)C(=O)O)cc3)cc2c(=O)[nH]1 | 60 to 110%
Nc1nc2[nH]c(CCNc3ccc(C(=O)N[C@@H](CCC(=O)O)C(=O)O)cc3)cc2c(=O)[nH]1 | 60 to 110%

---

target: Trifunctional purine biosynthetic protein adenosine-3 (Homo sapiens); assay: Inhibition of GARFTase in human KB cells expressing RFC/FR-alpha/PCFT assessed as decrease in incorporation of [14C(U)]-glycine into [14C]formyl GAR incubated for 1 hr followed by addition of [14C(U)]-glycine measured after 16 hrs in presence of azaserine
pIC50: −log10 of the molar value.
The compounds listed here are annotated with their pIC50.

TEST_SMILES | TARGET_ENTITY | pIC50
Nc1nc2[nH]c(CCN(C(=O)C(F)(F)F)c3ccc(C(=O)N[C@@H](CCC(=O)O)C(=O)O)cc3)cc2c(=O)[nH]1 | Trifunctional purine biosynthetic protein adenosine-3 (Homo sapiens) | 8.31
CC(=O)N(CCc1cc2c(=O)[nH]c(N)nc2[nH]1)c1ccc(C(=O)N[C@@H](CCC(=O)O)C(=O)O)cc1 | Trifunctional purine biosynthetic protein adenosine-3 (Homo sapiens) | 8.25
Nc1nc2[nH]c(CCOc3ccc(C(=O)N[C@@H](CCC(=O)O)C(=O)O)cc3)cc2c(=O)[nH]1 | Trifunctional purine biosynthetic protein adenosine-3 (Homo sapiens) | 8.18
Nc1nc2[nH]c(CCNc3ccc(C(=O)N[C@@H](CCC(=O)O)C(=O)O)cc3)cc2c(=O)[nH]1 | Trifunctional purine biosynthetic protein adenosine-3 (Homo sapiens) | 8.58
Nc1nc2[nH]c(CCSc3ccc(C(=O)N[C@@H](CCC(=O)O)C(=O)O)cc3)cc2c(=O)[nH]1 | Trifunctional purine biosynthetic protein adenosine-3 (Homo sapiens) | 8.28
Nc1nc2[nH]c(CCN(C=O)c3ccc(C(=O)N[C@@H](CCC(=O)O)C(=O)O)cc3)cc2c(=O)[nH]1 | Trifunctional purine biosynthetic protein adenosine-3 (Homo sapiens) | 8.68

---

Target: Trifunctional purine biosynthetic protein adenosine-3 (Homo sapiens, UniProt P22102)
Sequence (P22102 whole entry): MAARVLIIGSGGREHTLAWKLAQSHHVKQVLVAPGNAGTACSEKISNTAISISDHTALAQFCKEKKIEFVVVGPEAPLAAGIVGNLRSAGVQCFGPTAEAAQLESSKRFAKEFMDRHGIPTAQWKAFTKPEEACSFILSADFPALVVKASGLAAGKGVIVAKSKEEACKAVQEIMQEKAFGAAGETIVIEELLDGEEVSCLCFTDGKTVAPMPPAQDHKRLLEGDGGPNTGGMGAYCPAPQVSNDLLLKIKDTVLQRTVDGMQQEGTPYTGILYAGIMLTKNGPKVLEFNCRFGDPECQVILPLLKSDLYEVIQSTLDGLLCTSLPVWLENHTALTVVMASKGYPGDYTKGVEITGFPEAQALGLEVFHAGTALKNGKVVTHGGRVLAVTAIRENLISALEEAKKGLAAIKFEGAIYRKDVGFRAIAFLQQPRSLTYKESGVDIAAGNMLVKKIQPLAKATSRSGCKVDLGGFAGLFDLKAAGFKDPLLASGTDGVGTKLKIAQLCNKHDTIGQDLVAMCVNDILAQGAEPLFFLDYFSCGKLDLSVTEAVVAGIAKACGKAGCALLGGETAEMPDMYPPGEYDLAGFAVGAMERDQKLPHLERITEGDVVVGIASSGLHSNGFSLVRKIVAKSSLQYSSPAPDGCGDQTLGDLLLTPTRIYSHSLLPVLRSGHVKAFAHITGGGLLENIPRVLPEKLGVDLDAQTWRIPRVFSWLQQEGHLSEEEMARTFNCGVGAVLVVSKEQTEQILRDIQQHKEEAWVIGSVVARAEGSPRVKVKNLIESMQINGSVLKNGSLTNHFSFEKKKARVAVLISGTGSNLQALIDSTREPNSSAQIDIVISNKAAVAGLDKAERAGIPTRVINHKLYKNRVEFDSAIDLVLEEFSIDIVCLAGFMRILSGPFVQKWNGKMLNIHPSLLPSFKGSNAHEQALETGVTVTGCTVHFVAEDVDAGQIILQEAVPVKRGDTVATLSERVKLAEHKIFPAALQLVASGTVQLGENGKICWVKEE
Experiment: Inhibition of recombinant N-terminal 6His-tagged human GARFTase assessed as formation of 5,8-dideazafolate from 10-formyl-5,8-dideazafolic acid measured at every 15 seconds over 20 min by spectrophotometric analysis
pKi: −log10 of the molar value.
EXPERIMENTAL_ENDPOINT: pKi

TEST_SMILES | RECORDED_NUMBER
CC(=O)N(CCc1cc2c(=O)[nH]c(N)nc2[nH]1)c1ccc(C(=O)N[C@@H](CCC(=O)O)C(=O)O)cc1 | 7.21
Nc1nc2[nH]c(CCN(C=O)c3ccc(C(=O)N[C@@H](CCC(=O)O)C(=O)O)cc3)cc2c(=O)[nH]1 | 7.00
Nc1nc2[nH]c(CCN(C(=O)C(F)(F)F)c3ccc(C(=O)N[C@@H](CCC(=O)O)C(=O)O)cc3)cc2c(=O)[nH]1 | 6.91
Nc1nc2[nH]c(CCOc3ccc(C(=O)N[C@@H](CCC(=O)O)C(=O)O)cc3)cc2c(=O)[nH]1 | 7.21
